System: Escherichia coli
Assay: Ratio of MPC for Escherichia coli D21 tolC deletion mutant to MIC for Escherichia coli D21 tolC deletion mutant
Assay type: functional
parameter: Ratio
Please reply with the number alone, leaving off any unit.

CC(C)[C@H](NC(=O)C[C@H](NC(=O)CCCCCCCOc1ccc(CN(Cc2ccccc2)C(=O)c2cnc(N)o2)cc1)c1ccccc1)C(=O)[C@@H]1C(=O)NC(=O)[C@H]1C : 8

# input for lookup
I'm curious: which Ratio was measured for C/C=C/C=C/C(=O)N[C@@H](CC(=O)N[C@H](C(=O)[C@@H]1C(=O)NC(=O)[C@H]1C)C(C)C)c1ccccc1 tested on Escherichia coli?
32

###

Test system: Escherichia coli
Test: Antibacterial activity against moiramide-resistant Escherichia coli D21 tolC deletion mutant after 18 to 24 hrs by two-fold broth microdilution method
Format: functional
parameter: MIC (µg/mL)
The reply should contain only the number, in µg/mL.

Observe how each entry below is paired with its result.
C/C=C/C=C/C(=O)N[C@@H](CC(=O)N[C@H](C(=O)[C@@H]1C(=O)NC(=O)[C@H]1C)C(C)C)c1ccccc1 : 4
CC(C)[C@H](NC(=O)C[C@H](NC(=O)CCCCCCCOc1ccc(CN(Cc2ccccc2)C(=O)c2cnc(N)o2)cc1)c1ccccc1)C(=O)[C@@H]1C(=O)NC(=O)[C@H]1C : 16
Nc1ncc(C(=O)N(Cc2ccccc2)Cc2ccccc2)o1 : 8

Requested read-out: MIC. Entry: NC[C@H]1O[C@H](O[C@H]2[C@H](O)[C@@H](O[C@H]3O[C@H](CO)[C@@H](O)[C@H](N)[C@H]3O)[C@H](N)C[C@@H]2N)[C@H](O)[C@@H](O)[C@@H]1O
0.5
